Values from paper PMC4234452

Molecular target: murine TG2 (mTG2) (Mus musculus)
Sequence (P21981 whole entry): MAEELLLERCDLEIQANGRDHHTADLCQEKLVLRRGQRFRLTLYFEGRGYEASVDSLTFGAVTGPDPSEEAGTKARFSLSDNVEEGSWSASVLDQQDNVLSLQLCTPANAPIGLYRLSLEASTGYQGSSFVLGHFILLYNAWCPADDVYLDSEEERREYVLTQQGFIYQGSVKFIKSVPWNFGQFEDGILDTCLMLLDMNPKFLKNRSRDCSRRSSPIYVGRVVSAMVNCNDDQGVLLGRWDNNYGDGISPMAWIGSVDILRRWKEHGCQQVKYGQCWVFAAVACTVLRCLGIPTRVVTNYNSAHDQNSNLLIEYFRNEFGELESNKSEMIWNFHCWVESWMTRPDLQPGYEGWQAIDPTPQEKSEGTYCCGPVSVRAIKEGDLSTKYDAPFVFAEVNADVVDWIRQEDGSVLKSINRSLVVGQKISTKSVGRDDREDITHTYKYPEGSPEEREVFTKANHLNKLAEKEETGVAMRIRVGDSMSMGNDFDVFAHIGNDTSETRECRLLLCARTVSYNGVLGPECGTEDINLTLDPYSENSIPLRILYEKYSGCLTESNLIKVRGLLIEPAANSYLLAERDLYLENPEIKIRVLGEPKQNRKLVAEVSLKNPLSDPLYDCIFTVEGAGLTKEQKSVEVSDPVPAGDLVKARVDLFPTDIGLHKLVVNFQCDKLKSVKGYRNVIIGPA
Test: GDH-coupled transglutaminase assay, murine TG2
Type: biochemical
Conditions: irreversible inhibition model, substrate ZQG
Quick list: kinh/Ki mTG2 per entry.
Write down the numeric answer in M⁻¹ s⁻¹ and omit the unit.

{"columns": ["compound", "kinh/Ki mTG2 / M⁻¹ s⁻¹"],
 "data": [
  ["O=C(NC[C@@H]1CC(Br)=NO1)[C@@H]1C[C@@H](O)CN1C(=O)OCc1cnc2ccccc2c1 [Compound 4e]", 185]
]}

[Q] Which kinh/Ki mTG2 value is on record for O=C(N[C@@H]1C[C@@H](C(=O)NC[C@@H]2CC(Br)=NO2)N(C(=O)OCc2cnc3ccccc3c2)C1)c1ccc(O)cc1 [Compound 9d] ?
[A] 157

[Q] Record: O=C(N[C@@H]1C[C@@H](C(=O)NC[C@@H]2CC(Br)=NO2)N(C(=O)OCc2cnc3ccccc3c2)C1)c1cccnc1 [Compound 9e]
[A] 177

[Q] Record: O=C(NC[C@@H]1CC(Br)=NO1)[C@@H]1CCCN1C(=O)OCc1cnc2ccccc2c1 [Compound 1]
[A] 138

[Q] Record: O=C(NC[C@@H]1CC(Br)=NO1)[C@@H]1C[C@H](F)CN1C(=O)OCc1cnc2ccccc2c1 [Compound 4b]
[A] 117

[Q] Record: O=C(NC[C@@H]1CC(Br)=NO1)[C@@H]1C[C@@H](c2ccccc2)CN1C(=O)OCc1cnc2ccccc2c1 [Compound 7a]
[A] 423

[Q] Record: O=C(NC[C@@H]1CC(Br)=NO1)[C@@H]1C[C@@H](c2ccc(O)cc2)CN1C(=O)OCc1cnc2ccccc2c1 [Compound 7e]
[A] 645
